// data source = patent US20240116985A1

systemTested: T1, B-cat-Halo (beta-catenin HaloTag NanoBRET construct expressed in HEK293 cells) (UniProt P35222 1-781)
T1 sequence (looked up): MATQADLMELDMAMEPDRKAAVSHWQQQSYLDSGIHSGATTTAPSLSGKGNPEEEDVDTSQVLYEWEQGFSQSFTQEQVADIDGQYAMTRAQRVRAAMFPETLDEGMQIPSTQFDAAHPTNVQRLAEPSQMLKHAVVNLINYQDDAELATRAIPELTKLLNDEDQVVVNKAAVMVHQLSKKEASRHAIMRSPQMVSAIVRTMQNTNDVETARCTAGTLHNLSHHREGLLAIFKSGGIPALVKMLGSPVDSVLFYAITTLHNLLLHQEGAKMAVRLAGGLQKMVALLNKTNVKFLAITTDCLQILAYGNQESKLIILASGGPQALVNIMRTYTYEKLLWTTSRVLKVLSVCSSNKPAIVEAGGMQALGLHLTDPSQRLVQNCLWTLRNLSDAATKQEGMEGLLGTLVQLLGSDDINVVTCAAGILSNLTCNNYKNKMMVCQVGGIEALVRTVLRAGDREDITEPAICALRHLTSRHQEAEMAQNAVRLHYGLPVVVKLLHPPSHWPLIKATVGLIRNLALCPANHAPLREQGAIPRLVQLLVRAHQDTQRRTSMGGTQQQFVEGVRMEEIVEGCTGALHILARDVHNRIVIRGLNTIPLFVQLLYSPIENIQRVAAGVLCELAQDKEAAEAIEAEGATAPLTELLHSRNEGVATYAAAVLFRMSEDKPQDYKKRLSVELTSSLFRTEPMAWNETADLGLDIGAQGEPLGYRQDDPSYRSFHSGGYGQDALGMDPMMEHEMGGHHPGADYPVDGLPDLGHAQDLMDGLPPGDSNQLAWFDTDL
assayOverview: cell-based or functional assay
Starred links: 1 amine or outer side, 2 acyl side, 3 side chain; linkers in the order of their positions; H or OH if unused. Positions of bridges follow the written chain, without caps; N, C: chain ends. Non-standard residues stand in square brackets, D forms with d. Primed or numbered codes have the meaning given here. *: point of attachment. PyrS2″ = (S)-3-amino-1-((pent-4-en-1-yloxy)carbonyl)pyrrolidine-3-carboxylic acid (stapling residue), C=CCCCOC(=O)N1CC[C@@](N[*:1])(C(=O)[*:2])C1; B5(4) = 2,2-bis(4-pentenyl)glycine = 2-amino-2-(pent-4-en-1-yl)hept-6-enoic acid (stitching residue), C=CCCCC(CCCC=C)(N[*:1])C(=O)[*:2]; TfeGA = (S)-2-amino-3-((carboxymethyl)(2,2,2-trifluoroethyl)amino)propanoic acid, O=C([C@H](CN(CC(=O)[*:3])CC(F)(F)F)N[*:1])[*:2]; PyrS2 = (S)-3-amino-1-((pent-4-en-1-yloxy)carbonyl)pyrrolidine-3-carboxylic acid, C=CCCCOC(=O)N1CC[C@@](N[*:1])(C(=O)[*:2])C1; B5(3) = 2,2-bis(4-pentenyl)glycine (stitching residue), C=CCCCC(CCCC=C)(N[*:1])C(=O)[*:2]; Phe(2-Cl) = N[C@@H](Cc1ccccc1Cl)C(=O)O; Bta = N[C@@H](Cc1csc2ccccc12)C(=O)O; αAllylPro = C=CC[C@@]1(C(=O)O)CCCN1; tBuAla = CC(C)(C)C[C@H](N)C(=O)O; NH(CH2)6NH2 = NCCCCCCN*; Alaol = C[C@@H](CO)N*
resultType: NanoBRET Abs IC50 (µM)
Response body: numeric value in µM, unit text excluded.

// worked examples, NanoBRET Abs IC50 included
Ac-[αAllylPro]D[tBuAla][B5(4)]D[TfeGA]AAFT[PyrS2][Phe(2-Cl)][Bta]Q-{NH(CH2)6NH2} (staple 1-4, 4-11) [I-1061] :: 10.3
Ac-[αAllylPro]D[tBuAla][B5(4)]DDAAFN[PyrS2″][Phe(2-Cl)][Bta]Q-NHEt (staple 1-4, 4-11) [I-1079] :: 19.7

Okay, now this binder:
Input: // query NanoBRET Abs IC50 value for entry Ac-[αAllylPro]D[tBuAla][B5(3)]DDAAFN[PyrS2″][Phe(2-Cl)][Bta]-Alaol (staple 1-4, 4-11) [I-1081]
Output: 16.7
